# Test system: MCF7
# TEST METHOD NOTES: cells
# Assay type: cell-based
# MEASUREMENT SETUP: Homo sapiens, MCF7, read-out: growth inhibition % (GI%)
ENDPOINT: inhibition at 10 µM (%)
Provide only the numeric value, understood in %.

| SMILES CODE | VALUE UNITS | inhibition at 10 µM |
| --- | --- | --- |
| COc1ccc(Oc2ccc(C=NNC(=O)CSc3nc4ccccc4c(=O)n3-c3ccc(Cl)cc3)cc2)cc1 | % | 50.7 |
| O=C(CSc1nc2ccccc2c(=O)n1-c1ccccc1)NN=Cc1ccc(Oc2ccc(Br)cc2)cc1 | % | 31.1 |
| O=C(CSc1nc2ccccc2c(=O)n1-c1ccc(Cl)cc1)NN=Cc1ccc(Oc2ccc(Cl)cc2)cc1 | % | 84.5 |

Check the records and state inhibition at 10 µM for `O=C(CSc1nc2ccccc2c(=O)n1-c1ccc(Cl)cc1)NN=Cc1ccc(N2CCCCC2)cc1`
32.5

Tell me inhibition at 10 µM reported for `O=C(CSc1nc2ccccc2c(=O)n1-c1ccccc1)NN=Cc1ccc(Oc2ccc(Cl)cc2)cc1`
35.5

====

# System: BT-549
# TEST METHOD NOTES: cells
# Type: cell-based
# MEASUREMENT SETUP: Homo sapiens, BT-549, read-out: growth inhibition % (GI%)
ENDPOINT: inhibition at 10 µM

Worked cases, inhibition at 10 µM given:
| SMILES CODE | inhibition at 10 µM |
| --- | --- |
| O=C(CSc1nc2ccccc2c(=O)n1-c1ccc(Cl)cc1)NN=Cc1ccc(N2CCCCC2)cc1 | < 15% |
| O=C(CSc1nc2ccccc2c(=O)n1-c1ccc(Cl)cc1)NN=Cc1ccc(Oc2ccc(Cl)cc2)cc1 | > 100% |

Quickly give me recorded inhibition at 10 µM for `O=C(CSc1nc2ccccc2c(=O)n1-c1ccccc1)NN=Cc1ccc(Oc2ccc(Cl)cc2)cc1`
30.1%

Output inhibition at 10 µM of `O=C(CSc1nc2ccccc2c(=O)n1-c1ccccc1)NN=Cc1ccc(Oc2ccc(Br)cc2)cc1`
26.9%

Answer with the recorded inhibition at 10 µM of `COc1ccc(Oc2ccc(C=NNC(=O)CSc3nc4ccccc4c(=O)n3-c3ccc(Cl)cc3)cc2)cc1` only.
< 15%

====

In this section, each of the compounds is paired with its reported inhibition at 10 µM.
# Tested on: UO-31
# TEST METHOD NOTES: cells
# Type: cell-based
# MEASUREMENT SETUP: Homo sapiens; UO-31; 10 μM; read-out: growth inhibition % (GI%)

| SMILES CODE | OBSERVED VALUE |
| --- | --- |
| CN1CCN(c2ccc(C=NNC(=O)CSc3nc4ccccc4c(=O)n3-c3ccccc3)cc2)CC1 | < 15% |

Let me know recorded inhibition at 10 µM for `O=C(CSc1nc2ccccc2c(=O)n1-c1ccc(Cl)cc1)NN=Cc1ccc(Oc2ccc(Br)cc2)cc1` , thanks.
20.8%

Retrieve inhibition at 10 µM measured for `O=C(CSc1nc2ccccc2c(=O)n1-c1ccccc1)NN=Cc1ccc(N2CCCCC2)cc1` and print it.
23.3%

====

# Test system: NCI-H460
# TEST METHOD NOTES: cells
# Assay type: cell-based
# MEASUREMENT SETUP: Homo sapiens, NCI-H460, read-out: growth inhibition % (GI%)
ENDPOINT: inhibition at 10 µM (%)
Reply numerically in %, unit not repeated.

Solved cases below.
| SMILES CODE | SYSTEM TESTED | OBSERVED VALUE |
| --- | --- | --- |
| O=C(CSc1nc2ccccc2c(=O)n1-c1ccc(Cl)cc1)NN=Cc1ccc(N2CCCCC2)cc1 | NCI-H460 | 90.3 |
| O=C(CSc1nc2ccccc2c(=O)n1-c1ccccc1)NN=Cc1ccc(Oc2ccc(Br)cc2)cc1 | NCI-H460 | 72 |
| O=C(CSc1nc2ccccc2c(=O)n1-c1ccccc1)NN=Cc1ccc(Oc2ccc(Cl)cc2)cc1 | NCI-H460 | 67.9 |

Field: next compound
// fetch inhibition at 10 µM for `COc1ccc(Oc2ccc(C=NNC(=O)CSc3nc4ccccc4c(=O)n3-c3ccc(Cl)cc3)cc2)cc1` ; system: NCI-H460
88.8

====

# Tested on: SK-MEL-5
# TEST METHOD NOTES: cells
# Assay type: cell-based
# MEASUREMENT SETUP: Homo sapiens, SK-MEL-5, read-out: growth inhibition % (GI%)
ENDPOINT: inhibition at 10 µM (%)
Please respond with the number in % and leave the unit unwritten.

Report the value of inhibition at 10 µM obtained on SK-MEL-5 for `O=C(CSc1nc2ccccc2c(=O)n1-c1ccc(Cl)cc1)NN=Cc1ccc(Oc2ccc(Cl)cc2)cc1` .
89.1

Report inhibition at 10 µM under test system SK-MEL-5 for `O=C(CSc1nc2ccccc2c(=O)n1-c1ccccc1)NN=Cc1ccc(Oc2ccc(Cl)cc2)cc1` .
28.8

Enter inhibition at 10 µM (test system SK-MEL-5) for `COc1ccc(Oc2ccc(C=NNC(=O)CSc3nc4ccccc4c(=O)n3-c3ccc(Cl)cc3)cc2)cc1`
22

Quote inhibition at 10 µM with test system SK-MEL-5 for `O=C(CSc1nc2ccccc2c(=O)n1-c1ccccc1)NN=Cc1ccc(Oc2ccc(Br)cc2)cc1`
40.9

====

Catalogue of compounds with associated inhibition at 10 µM
# Tested on: 786-0
# TEST METHOD NOTES: cells
# Assay type: cell-based
# MEASUREMENT SETUP: Homo sapiens; 786-0; 10 μM; read-out: growth inhibition % (GI%)

# example entries with known answers
| SMILES CODE | ENDPOINT | OBSERVED VALUE |
| --- | --- | --- |
| CN1CCN(c2ccc(C=NNC(=O)CSc3nc4ccccc4c(=O)n3-c3ccccc3)cc2)CC1 | inhibition at 10 µM | < 15% |
| COc1ccc(Oc2ccc(C=NNC(=O)CSc3nc4ccccc4c(=O)n3-c3ccccc3)cc2)cc1 | inhibition at 10 µM | < 15% |

Turning now to a further record.
Provide measured inhibition at 10 µM value, entry: `O=C(CSc1nc2ccccc2c(=O)n1-c1ccc(Cl)cc1)NN=Cc1ccc(N2CCOCC2)cc1`
< 15%

====

# System: TK-10
# TEST METHOD NOTES: cells
# Assay type: cell-based
# MEASUREMENT SETUP: Homo sapiens, TK-10, read-out: growth inhibition % (GI%)
ENDPOINT: inhibition at 10 µM

These recorded examples may help you get a feel for the data.
| COMPOUND | inhibition at 10 µM |
| --- | --- |
| O=C(CSc1nc2ccccc2c(=O)n1-c1ccc(Cl)cc1)NN=Cc1ccc(N2CCCCC2)cc1 [6j] | < 15% |
| O=C(CSc1nc2ccccc2c(=O)n1-c1ccc(Cl)cc1)NN=Cc1ccc(Oc2ccc(Cl)cc2)cc1 [6d] | 60.3% |
| O=C(CSc1nc2ccccc2c(=O)n1-c1ccccc1)NN=Cc1ccc(Oc2ccc(Cl)cc2)cc1 [6a] | < 15% |
| COc1ccc(Oc2ccc(C=NNC(=O)CSc3nc4ccccc4c(=O)n3-c3ccc(Cl)cc3)cc2)cc1 [6f] | < 15% |

Here is another compound to look at.
Specify reported inhibition at 10 µM for the compound shown: O=C(CSc1nc2ccccc2c(=O)n1-c1ccccc1)NN=Cc1ccc(Oc2ccc(Br)cc2)cc1 [6b]
< 15%

====

# Test system: SF-295
# TEST METHOD NOTES: cells
# Type: cell-based
# MEASUREMENT SETUP: Homo sapiens, SF-295, read-out: growth inhibition % (GI%)
Returns one of t or f; t when inhibition at 10 µM is >= 20%.

| MOLECULE | LABEL |
| --- | --- |
| COc1ccc(Oc2ccc(C=NNC(=O)CSc3nc4ccccc4c(=O)n3-c3ccc(Cl)cc3)cc2)cc1 [6f] | t |
| O=C(CSc1nc2ccccc2c(=O)n1-c1ccccc1)NN=Cc1ccc(Oc2ccc(Br)cc2)cc1 [6b] | f |
| O=C(CSc1nc2ccccc2c(=O)n1-c1ccc(Cl)cc1)NN=Cc1ccc(N2CCCCC2)cc1 [6j] | t |
| O=C(CSc1nc2ccccc2c(=O)n1-c1ccc(Cl)cc1)NN=Cc1ccc(Oc2ccc(Cl)cc2)cc1 [6d] | t |

Query molecule follows.
Form field: inhibition at 10 µM at least 20%? Entry: O=C(CSc1nc2ccccc2c(=O)n1-c1ccccc1)NN=Cc1ccc(Oc2ccc(Cl)cc2)cc1 [6a]
f

====

# System: OVCAR-8
# TEST METHOD NOTES: cells
# Type: cell-based
# MEASUREMENT SETUP: Homo sapiens, OVCAR-8, read-out: growth inhibition % (GI%)
ENDPOINT: inhibition at 10 µM (%)
// units = %; emit number, no label

Illustrative cases are given below, each with its answer.
| SMILES CODE | inhibition at 10 µM (%) |
| --- | --- |
| O=C(CSc1nc2ccccc2c(=O)n1-c1ccc(Cl)cc1)NN=Cc1ccc(Oc2ccc(Cl)cc2)cc1 | 86.6 |
| O=C(CSc1nc2ccccc2c(=O)n1-c1ccccc1)NN=Cc1ccc(Oc2ccc(Cl)cc2)cc1 | 40.8 |
| O=C(CSc1nc2ccccc2c(=O)n1-c1ccc(Cl)cc1)NN=Cc1ccc(N2CCCCC2)cc1 | 34.7 |

Give the value of inhibition at 10 µM reported for the following: `O=C(CSc1nc2ccccc2c(=O)n1-c1ccccc1)NN=Cc1ccc(Oc2ccc(Br)cc2)cc1`
36.7
